// provenance: the METLIN SMRT retention time set (Domingo-Almenara et al. 2019)

- experiment notes: gradient 5% acetonitrile 3 min, to 50% in 2 min, to 85% in 15 min, held 3 min, 100 µL/min
- applied conditions: column: Zorbax Extend-C18 2.1 x 50 mm; eluents: water / acetonitrile, 0.1% formic acid
reported endpoint: RP-LC retention time (s)

Cc1ccc(S(=O)(=O)Nc2cccc(-c3cn4ccccc4n3)c2)cc1[N+](=O)[O-]; 681
Cc1oc2ccn(C)c(=O)c2c1C(=O)NCc1ccccc1Br; 914
CCn1c(=O)c(C(=O)N2CCN(c3cc(C)ccc3C)CC2)nc2cccnc21; 1040
CSc1ccc(CNC(=O)C2CCN(c3cncnc3N3CCOCC3)CC2)cc1; 637
COCCCN1CCC(NC(=O)c2cc(Cl)c(N)c3c2OCC3)CC1; 641
CCOC(=O)c1cnc2nc(C)ccc2c1Nc1ccc(F)c(C#N)c1; 684
Cc1ccccc1CNC(=O)C1CCCN(S(=O)(=O)c2c[nH]c(C(=O)N3CCCCCC3)c2)C1 (configuration not stated); 871
O=S(=O)(c1ccc(Br)cc1)N1CCCC1c1nc(-c2ccc(F)cc2)no1 (configuration not stated); 1160
Cc1csc(NC(=O)C2CCN(S(=O)(=O)c3ccc4c(c3)sc(=O)n4C)CC2)n1; 782
COc1ccc(Cc2noc(Cc3nnc(-c4ccc(Cl)cc4)o3)n2)cc1; 1010
COc1ccccc1-c1coc2cc(OC(=O)c3cccc([N+](=O)[O-])c3)ccc2c1=O; 1010
Cc1nc(-c2csc(S(=O)(=O)N3CCCC(C(=O)Nc4ccc5c(c4)OCO5)C3)c2)no1 (configuration not stated); 894

----------
- experiment notes: gradient 5% acetonitrile 3 min, to 50% in 2 min, to 85% in 15 min, held 3 min, 100 µL/min
- applied conditions: column: Zorbax Extend-C18 2.1 x 50 mm; eluents: water / acetonitrile, 0.1% formic acid
reported endpoint: RP-LC retention time (s)

COC(=O)C1=CN(c2cccc(Cl)c2)c2ccccc2S1(=O)=O; 879
CCc1ccc(NC(=O)N2CCc3nc(-c4ccc(OC)cc4)ncc3C2)cc1; 995
CCc1ccc(CN2C(=O)CN(S(C)(=O)=O)CC2(C)C(=O)NCc2ccc(C)cc2)cc1 (stereo not given); 963
Cc1occc1-c1nnc2sc(COc3ccc(F)cc3)nn12; 939
O=C(CCc1ccc2[nH]ccc2c1)N1CCN(c2ccc(F)cc2)CC1; 865
Cc1ccc(CNC(=O)C2(C)CN(S(C)(=O)=O)CC(=O)N2Cc2ccc(C)cc2)cc1 (stereo not given); 899
CN(C)[C@@H](CCOc1cccc2ccccc12)c1ccccc1; 807
COc1ccc(C(O)Cn2ccn3nc(-c4cc(C)ccc4C)cc3c2=O)cc1 (stereo not given); 949
COC(=O)c1ccc(NC(=O)c2c(OC)cc(=O)n3c2CCCC3)cc1; 678
Cn1ccc(C(=O)Nc2sccc2C(N)=O)n1; 623
CCOC(=O)c1c(S(=O)(=O)N2CCC(C(=O)Nc3ccc(Cl)cc3)CC2)c(C)n(CC)c1C; 957
Cn1cc2nc(SCc3cc(F)cc(F)c3)n(Cc3ccc(F)cc3)c(=O)c2n1; 1070
Cc1cc(C)c(-c2noc(C)n2)c(NC(=O)c2cccc(Br)c2)n1; 820
Clc1cccc(-c2nnc(-c3nc(N4CCOCC4)c4ccccc4n3)o2)c1; 973
COc1ccc(-c2noc(N3CCC(C(=O)Nc4cc(C)on4)CC3)n2)cc1OC; 784
